Entries and their pIC50
target: Tubulin; assay: Inhibition of tubulin polymerization in human MCF7 cells by ELISA
Reminder that pIC50 is minus the log10 of a molar concentration.

- COc1cc2c(=O)c(C(=O)c3ccc(F)cc3)cn(CC(=O)Nc3ccc(F)c(F)c3)c2cc1OC: 4.88

// below: pIC50 requested for another compound
pIC50 measured on "COc1ccc(C(=O)c2cn(CC(=O)Nc3ccc(F)cc3)c3cc(OC)c(OC)cc3c2=O)cc1" = 4.89
